Target: monoclonal antibody DD-5
Assay: Competition ELISA with monoclonal antibody DD-5
Assay type: binding, Biozzi mice
Settings: competitor vs monoclonal antibody DD-5; plate coated with A-triCDD-RSA
// reported I50 (inhibits antibody binding by 50%) per item

ClC1=C(Cl)C2(Cl)C3C(Cl)C(Cl)CC3C1(Cl)C2(Cl)Cl (stereo not drawn)	> 2000 ng
ClC1=C(Cl)C2(Cl)C3C4C=CC(C4)C3C1(Cl)C2(Cl)Cl (stereo not drawn)	> 2000 ng
Clc1ccccc1-c1cc(Cl)c(Cl)c(Cl)c1Cl	> 10 ng
Oc1cc(Cl)c(Cl)cc1O	> 2000 ng

Record request: I50 (inhibits antibody binding by 50%) value, item Clc1ccc2oc3c(Cl)c(Cl)c(Cl)c(Cl)c3c2c1Cl > 10 ng

Given the molecule O=C(O)COc1cc(Cl)c(Cl)cc1Cl , what is its reported I50 (inhibits antibody binding by 50%)? > 2000 ng

Name the recorded I50 (inhibits antibody binding by 50%) for Clc1cc(-c2cc(Cl)c(Cl)c(Cl)c2Cl)c(Cl)c(Cl)c1Cl . > 10 ng

For the molecule shown here, ClC1C(Cl)C(Cl)C(Cl)C(Cl)C1Cl (stereo not drawn) , give the reported I50 (inhibits antibody binding by 50%). > 2000 ng

Look at this molecule and give its reported I50 (inhibits antibody binding by 50%). Clc1cc(Cl)c2c(c1Cl)Oc1ccccc1O2 > 10 ng
